experiment: qHTS for Inducers of the Endoplasmic Reticulum Stress Response (ERSR) in Human Glioma: qHTS; conditions: U87-MG GRP78 promoter luciferase reporter, 16 h; hits give high values; also: % of control where 0% means no effect; nearly all actives have a fitted effect of over 35% in size
Screen size: about 420,000 compounds; about 75 (0.02%) were called active. This excerpt belongs to a sample that is enriched for actives.
The molecules listed here are annotated with their activation.
observed.property: activation (%)

molecule=Cc1cccc(CNC(=O)c2cnn(-c3nccc(-c4ccccc4F)n3)c2C2CC2)n1 observed_property=activation observed_value=-2.43
molecule="CC(=O)Oc1c2c(c3c(c1CC=C(C)C)O[C@@]14C(=CC5CC1C(C)(C)OC4(C/C=C(\\C)C(=O)O)C5=O)C3=O)OC(C)(CCC=C(C)C)C=C2 (stereo not given in full)" observed_property=activation observed_value=-12.4
molecule=Cc1ccc(-c2ccc(C(=O)N3CCc4nnc(CNC(=O)c5ccccc5)n4CC3)cc2)cc1 observed_property=activation observed_value=-3.28
molecule=CN1CCN(/[N+]([O-])=N/Oc2ccc([N+](=O)[O-])cc2[N+](=O)[O-])CC1 observed_property=activation observed_value=20.9
molecule=COc1ccc(CCNc2ncnc3sc(C(=O)N4CCCC4)c(C)c23)cc1OC observed_property=activation observed_value=-0.648
molecule=Cc1ccc(/C=C(\C#N)C(=O)Nc2cc(C)ccc2C)cc1 observed_property=activation observed_value=-3.56
molecule="COc1ccc2c(c1)NC(=O)C2CC(=O)N1CCOc2c(cc(-c3cnc4ccccc4c3)cc2OC)C1 (stereo not given)" observed_property=activation observed_value=-6.72
molecule=C[C@]12CC[C@@H]3C(=CCc4cc(O)ccc43)[C@@H]1CCC2=O observed_property=activation observed_value=2.61
molecule="CCc1nc2cc(C(=O)NCC3CCS(=O)(=O)C3)cc(NC(=O)c3ccccc3OC)c2n1C (stereo not given)" observed_property=activation observed_value=-5.29
molecule=COc1ccc2c(c1)CCc1cnc(-n3ncc(C(=O)NCCN4CCOCC4)c3C)nc1-2 observed_property=activation observed_value=5.73
molecule="COc1ccccc1C1CN(Cc2ccccc2O)Cc2ccccc2O1 (stereo not given)" observed_property=activation observed_value=-2.43
molecule="FC(F)(F)c1cccc(-c2cn[nH]c2C2CCCN(Cc3cccn3-c3ccccn3)C2)c1 (stereo not given)" observed_property=activation observed_value=-5.05
molecule="COc1ccc(F)c(CN2CCC3(CCC(CNC(=O)c4ccn(C)n4)O3)CC2)c1 (stereo not given)" observed_property=activation observed_value=-4.54
molecule=Cc1cnc(-n2ncc(C(=O)N3CCN(C(C)C)CC3)c2-c2ccco2)nc1-c1ccc(F)cc1 observed_property=activation observed_value=-4.71
molecule=Cc1cc[n+](C2CCCCC2)cc1 observed_property=activation observed_value=0.895
molecule="O=C(c1cccc(Cn2cccn2)c1)N1CCOc2c(cc(-c3csc4ccccc34)cc2OC2CCOC2)C1 (stereo not given)" observed_property=activation observed_value=-1.78
molecule="COc1ccc(CN2CCC3(CCC(CNC(=O)c4ccco4)O3)CC2)cc1OC (stereo not given)" observed_property=activation observed_value=0.172
molecule=COc1ccc(/C=C/NC(=O)c2ccc(OC)cc2)cc1 observed_property=activation observed_value=-1.95
molecule="CC(C)C(=O)NC(C)c1nnc2n1CCN(Cc1cccc3ncccc13)CC2 (stereo not given)" observed_property=activation observed_value=-2.92
molecule=CN(C)c1ccc(/C=C/c2sc3ccccc3[n+]2C)cc1 observed_property=activation observed_value=-8.55
